tested on: IL-1β release upon NLRP3 activation in peripheral blood mononuclear cells (PBMC); assay: PBMC IC50 Determination Assay; format: cell-based; conditions: Homo sapiens; inhibition of IL-1β release; LPS-primed PBMC stimulated with ATP or nigericin
pIC50: −log10 of the molar value.
ASSAY_METRIC: pIC50

A selection of reference data follows.
>  <COMPOUND>
Cc1cc(C(F)(F)F)cc(O)c1-c1ccc(CN[C@@H]2CCOC2)nn1 [Compound 32]

>  <pIC50>
> 6.30

$$$$
>  <COMPOUND>
Cc1cc(C(F)(F)F)cc(O)c1-c1ccc(CNC2(C)CCOCC2)nn1 [Compound 5]

>  <pIC50>
6.00 to 6.30

$$$$
>  <COMPOUND>
Cc1cc(Cl)cc(O)c1-c1ccc(CN2CCOC2=O)nn1 [Compound 67]

>  <pIC50>
> 6.30

$$$$

In: Would you kindly share the measured pIC50 for Cc1cc(Cl)cc(O)c1-c1ccc(CN(C)[C@H]2CC(=O)N(C)C2)nn1 [Compound 91] ?
Out: 5.52 to 6.00

In: Next: Oc1cc(C(F)(F)F)cc(Cl)c1-c1ccc(CNC2CCOCC2)nn1 [Compound 14]
Out: 5.52 to 6.00

In: Could you do the same for Cc1cc(CNC2CCOCC2)nnc1-c1ccc(C(F)(F)F)cc1O [Compound 11] , please?
Out: 5.52 to 6.00

In: Similarly, Cc1cc(Cl)cc(O)c1-c1ccc(CNc2c(C)noc2C)nn1 [Compound 56] ?
Out: 6.00 to 6.30

In: Same question, Cc1cc(C(F)(F)F)cc(O)c1-c1ccc(CNc2conc2C)nn1 [Compound 55] this time
Out: 6.00 to 6.30

---

test system: IL-1β release upon NLRP3 activation in peripheral blood mononuclear cells (PBMC); assay: PBMC IC50 Determination Assay; assay type: cell-based; conditions: Homo sapiens; inhibition of IL-1β release; LPS-primed PBMC stimulated with ATP or nigericin
pIC50: −log10 of the molar value.
ASSAY_METRIC: pIC50

Solved cases (3 shown):
>  <MOLECULE>
Cc1cc(C(F)(F)F)cc(O)c1-c1ccc(CNCC2COC2)nn1

>  <RECORDED_MEASUREMENT>
5.52 to 6.00

$$$$
>  <MOLECULE>
Cc1cc(C(F)(F)F)cc(O)c1-c1ccc(CN[C@@H]2CCC(=O)N(C)C2)nn1

>  <RECORDED_MEASUREMENT>
> 6.30

$$$$
>  <MOLECULE>
Cc1cc(C(F)(F)F)cc(O)c1-c1ccc(C2(N3CCCC3=O)CC2)nn1

>  <RECORDED_MEASUREMENT>
6.00 to 6.30

$$$$

In: Would you mind telling me what pIC50 value was observed for Oc1cc(Cl)ccc1-c1ccc(CNC2CCOCC2)nn1 ?
Out: ≤ 5.00

---

Tested on: IL-1β release upon NLRP3 activation in peripheral blood mononuclear cells (PBMC)
Experiment: PBMC IC50 Determination Assay
Type: cell-based
Settings: Homo sapiens; inhibition of IL-1β release; LPS-primed PBMC stimulated with ATP or nigericin
Description: The compounds of the present disclosure were tested for their inhibitory activity against IL-1β release upon NLRP3 activation in peripheral blood mononuclear cells (PBMC). […] The release of IL-1β into the media was determined by a quantitative detection of IL-1β in the media using an IL-1β enzyme-linked immunosorbent assay (ELISA) Ready-SET-Go!, eBioscience cat. […] The release of IL-1β into the media was determined by quantitative detection of IL-1β in the media using HTRF®, CisBio cat. […]
The following molecules are listed with their measured IC50 values.

Some molecules with known IC50 results, for comparison:
>  <SMILES_CODE>
Cc1cc(C(F)(F)F)cc(O)c1-c1ccc(CN2CCCCC2=O)nn1

>  <IC50>
< 0.5 µM

$$$$
>  <SMILES_CODE>
Cc1cc(Cl)cc(O)c1-c1ccc(CN[C@H]2CC(=O)N(C)C2)nn1

>  <IC50>
< 0.5 µM

$$$$
>  <SMILES_CODE>
Cc1cc(C(F)(F)F)cc(O)c1-c1ccc(COC2CCNCC2)nn1

>  <IC50>
1 to 3 µM

$$$$
>  <SMILES_CODE>
Cc1cc(C(F)(F)F)cc(O)c1-c1ccc(CN)nn1

>  <IC50>
1 to 3 µM

$$$$

We now examine a further molecule.
In: Query IC50 on IL-1β release upon NLRP3 activation in peripheral blood mononuclear cells (PBMC) for Cc1cc(C(F)(F)F)cc(O)c1-c1ccc(CNc2cnoc2)nn1
Out: < 0.5 µM

---

Quick reference: pIC50 of the listed items.
test system: IL-1β release upon NLRP3 activation in peripheral blood mononuclear cells (PBMC); assay: PBMC IC50 Determination Assay; type: cell-based; details: Homo sapiens; inhibition of IL-1β release; LPS-primed PBMC stimulated with ATP or nigericin
pIC50: −log10 of the molar value.

Below, each entry is followed by its recorded pIC50 result.
>  <COMPOUND>
Cc1cc(C(F)(F)F)cc(O)c1-c1ccc(CNC2CCOC(C)C2)nn1 (stereo not drawn)

>  <ASSAY_METRIC>
pIC50

>  <RECORDED_MEASUREMENT>
6.00 to 6.30

$$$$
>  <COMPOUND>
Cc1cc(C(F)(F)F)cc(O)c1-c1ccc(CNC2CCCOC2)nn1 (stereo not drawn)

>  <ASSAY_METRIC>
pIC50

>  <RECORDED_MEASUREMENT>
6.00 to 6.30

$$$$

In: Using the record for Cc1cc(NCc2ccc(-c3c(C)cc(C(F)(F)F)cc3O)nn2)on1 , report its pIC50.
Out: 5.52 to 6.00

In: Follow-up entry: Oc1cc(C(F)(F)F)cc(F)c1-c1ccc(CNC2CCOCC2)nn1
Out: 5.00 to 5.52

In: Cc1cc(C(F)(F)F)cc(O)c1-c1ccc(CNC2CC(F)(F)C2)nn1 , same question.
Out: > 6.30

In: Next entry: Cc1cc(C(F)(F)F)cc(O)c1-c1ccc(CNC2CCOCC2)nn1
Out: 6.00 to 6.30

In: // next record Cc1cc(C(F)(F)F)cc(O)c1-c1ccc(CNCC(F)F)nn1
Out: > 6.30

In: Now give it for Cc1cc(C(F)(F)F)cc(O)c1-c1ccc(CN(C)C2CCOCC2)nn1 too.
Out: 5.52 to 6.00

In: Next up: CO[C@H]1CCN(Cc2ccc(-c3c(C)cc(C(F)(F)F)cc3O)nn2)C1
Out: 6.00 to 6.30

In: Same question for Oc1cc(C(F)(F)F)cc(C(F)(F)F)c1-c1ccc(CNC2CCOCC2)nn1 please.
Out: 5.52 to 6.00

---

test system: IL-1β release upon NLRP3 activation in peripheral blood mononuclear cells (PBMC); test: PBMC IC50 Determination Assay; format: cell-based; settings: Homo sapiens; inhibition of IL-1β release; LPS-primed PBMC stimulated with ATP or nigericin
pIC50: −log10 of the molar value. Counter-ions that a name gives are not always drawn.
The reader will find reported pIC50 values listed item by item below.

Here's what some known entries look like.
>  <COMPOUND>
Cc1cnc(NCc2ccc(-c3c(C)cc(C(F)(F)F)cc3O)nn2)s1 [Compound 83]

>  <ASSAY_METRIC>
pIC50

>  <RECORDED_MEASUREMENT>
6.00 to 6.30

$$$$
>  <COMPOUND>
Cc1cc(Cl)cc(O)c1-c1ccc(COC2COC2)nn1 [Compound 65]

>  <ASSAY_METRIC>
pIC50

>  <RECORDED_MEASUREMENT>
> 6.30

$$$$
>  <COMPOUND>
Cc1cc(C(F)(F)F)cc(O)c1-c1ccc(CN[C@H]2CC[C@](C)(O)CC2)nn1 [Compound 152]

>  <ASSAY_METRIC>
pIC50

>  <RECORDED_MEASUREMENT>
5.52 to 6.00

$$$$
>  <COMPOUND>
Cc1cc(C(F)(F)F)cc(O)c1-c1ccc(CN[C@@H]2CC(=O)N(C)C2)nn1 [Compound 50]

>  <ASSAY_METRIC>
pIC50

>  <RECORDED_MEASUREMENT>
5.52 to 6.00

$$$$
>  <COMPOUND>
CO[C@@H]1CCN(Cc2ccc(-c3c(C)cc(Cl)cc3O)nn2)C1 [Compound 60]

>  <ASSAY_METRIC>
pIC50

>  <RECORDED_MEASUREMENT>
5.52 to 6.00

$$$$
>  <COMPOUND>
Cc1cc(C(F)(F)F)cc(O)c1-c1ccc(CNc2ccncn2)nn1 [Compound 75, hydrochloride]

>  <ASSAY_METRIC>
pIC50

>  <RECORDED_MEASUREMENT>
6.00 to 6.30

$$$$
>  <COMPOUND>
CC(=O)N1CCC(OCc2ccc(-c3c(C)cc(Cl)cc3O)nn2)C1 (stereo not drawn) [Compound 68]

>  <ASSAY_METRIC>
pIC50

>  <RECORDED_MEASUREMENT>
6.00 to 6.30

$$$$
>  <COMPOUND>
Cc1cc(Cl)cc(O)c1-c1ccc(CO[C@H]2CCOC2)nn1 [Compound 64]

>  <ASSAY_METRIC>
pIC50

>  <RECORDED_MEASUREMENT>
> 6.30

$$$$

Next up:
In: Dear colleague, I am looking for the recorded pIC50 of the following compound: Cc1cc(C(F)(F)F)cc(O)c1-c1ccc(CNc2ccccn2)nn1 [Compound 78]
Out: ≤ 5.00
